Cited source: patent US8569267B2

The compounds listed here are annotated with their IC50.
Target: human Dopamine D2L receptor (Homo sapiens, UniProt P14416)
Construct: expressed in transfected cells; host or cells: CHO cells
Sequence (P14416 whole entry): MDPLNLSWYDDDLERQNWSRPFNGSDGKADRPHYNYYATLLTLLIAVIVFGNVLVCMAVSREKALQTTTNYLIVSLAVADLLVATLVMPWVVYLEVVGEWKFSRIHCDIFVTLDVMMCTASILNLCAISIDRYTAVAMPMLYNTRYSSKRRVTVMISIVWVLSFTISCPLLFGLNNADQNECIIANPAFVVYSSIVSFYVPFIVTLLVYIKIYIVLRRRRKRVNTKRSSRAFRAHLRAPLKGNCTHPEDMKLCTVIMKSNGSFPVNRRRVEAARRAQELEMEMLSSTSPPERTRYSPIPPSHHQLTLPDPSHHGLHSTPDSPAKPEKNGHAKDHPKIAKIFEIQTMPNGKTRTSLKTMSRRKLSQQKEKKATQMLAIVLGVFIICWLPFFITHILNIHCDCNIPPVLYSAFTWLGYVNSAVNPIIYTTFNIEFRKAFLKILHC
Test: In vitro binding affinity for human D2L receptor ([3H]Spiperone binding)
Settings: human D2L receptor-transfected CHO cell membranes, read-out: D2L pIC50 (converted)
parameter: IC50 (nM)

> print(dat)
                                   compound  recorded.value
1  Fc1ccc2c(c1)[C@@H]1O[C@@H](CN3CCN(c4cccc(C(F)(F)F)n4)CC3)C[C@@H]1c1ccccc1C2             158
2  O=C(C1CC1)N1CCN(C[C@H]2C[C@@H]3c4ccccc4Cc4ccc(F)cc4[C@@H]3O2)CC1            36.3
3  Fc1ccc2c(c1)C1OC(CN3CCC(Oc4ccccc4F)C3)CC1c1ccccc1C2 (mixture of isomers)              10
